Tested on: K4 kissing-loop RNA reporter;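 also: bound reporter read as fluorescence of individual clusters on recovered sequencing chips by microscopy, with normalized cluster intensities fitted with a binding model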
test.name: apparent KD of K4 kissing-loop reporter; higher = weaker reporter binding
applied.conditions: Eterna round: R107; input ligand: tryptophan 2.4 mM
observed.property: apparent KD of K4 kissing-loop reporter (nM)
I only need the number, in nM, no unit after it.

Could you tell me which apparent KD of K4 kissing-loop reporter is on file for CACUCGGUAUCAGAUACCAGACUAACGAUACCGAGUGUAUCGGGUAGUGAUGUUACCAUAGUCCCUUGGCAGCUGAUAUUCCCUA [Theo B SS t9a] ?
199

Could you tell me which apparent KD of K4 kissing-loop reporter is on file for AAUACCUGAGUGAUGUUCAGGGAAUCAGAAGGAGCGUCAAUUAUGACAGGUAGGUCGCUGAAGACAUGUGUGUAUACACAUGUCC [#04 K4 Arginine A Same State] ?
200

Could you tell me which apparent KD of K4 kissing-loop reporter is on file for AGGUACAAAAGUACCGCUAGAUCCACGGAAGGAGCGCCGGAAACGGCAGGUAGGUCGCCGGGCAGUGAUGUUGCCGGAUCUAGCA [Omei KL Arginine A SS A v4] ?
198

###

Tested on: MS2 coat protein
test.name: apparent KD of MS2 coat protein; designed switch direction (-1 OFF switch, 1 ON switch): -1; higher = weaker reporter binding
applied.conditions: Eterna round: R95; input ligand: microRNA oligo, concentration not stated
observed.property: apparent KD of MS2 coat protein (µM)
I only need the number, in µM, no unit after it.

Could you tell me which apparent KD of MS2 coat protein is on file for UACUAUAAGGAGGAUAUCGUAUCGGAGACGAUACGAGAAGGCUUAACAUGAGGAUCACCCAUGUUCUUCAAUAU [Mat - Exclusion 6 - Eli Mod - D91] (puzzle: Exclusion 6) ?
0.0148

Could you tell me which apparent KD of MS2 coat protein is on file for CAGAAGCAAGGAUAUACAACGGGCCACAGAGCGAGAGGGCAACAUGAGGAUCACCCAUGUAGAAGGUGCGUAAC [Timaina] (puzzle: Exclusion 2) ?
0.0974

Could you tell me which apparent KD of MS2 coat protein is on file for UGUACUAUGCGAGCUGACUUGCGUAGUGCAGCAGGUGGAACAUGAGGAUCACCCAUGUCCUCAUUUGCUCGUCUUAU [SL-sv3-2.03 JL mod] (puzzle: Sensor v3, turn-off variant 2) ?
0.143

Could you tell me which apparent KD of MS2 coat protein is on file for CAGUACUGAGGAUAUACAUGAGGAUCACCCAUGUCUUAAAAGUAGGAUACUACUAUUAGUAGAAGGCAGUACUG [Fiskers Ex 3 828 mod 24] (puzzle: Exclusion 3) ?
0.0126

Could you tell me which apparent KD of MS2 coat protein is on file for CUCUUGUCAGGAUAUUAUGGACGAUAGCAGGGCUACGUCAGUGAGAAGGGACAUGAGGAUCACCCAUGUAAAAU [Onatbezaes] (puzzle: Exclusion 4) ?
0.0771

###

Tested on: MS2 coat protein
test.name: apparent KD of MS2 coat protein; higher = weaker reporter binding
applied.conditions: Eterna round: R107; input ligand: arginine 13.2 mM
observed.property: apparent KD of MS2 coat protein (nM)
I only need the number, in nM, no unit after it.

Write down the reported apparent KD of MS2 coat protein of AGCACUGUGACGGCCGCCACUACAUAAAUUGGGUGGUCAGGUUCAUUACAUGAGGAUCACCCAUGUAGGACCGGGUCUCAGUGCA [Omei Trp Exc B A v8] , test system: MS2 coat protein.
15.9

Write down the reported apparent KD of MS2 coat protein of UACCGAUACGGAAGGAGCGUAGAAGUAGUACAUGAGGAUCACCCAUGUAUGGGUAAUUUCGUACAGGUAGGUCGCCGUAUCGGUA [SSAB NP+V+V2 #23] , test system: MS2 coat protein.
23.3

Write down the reported apparent KD of MS2 coat protein of GGGUGCGGGAUAGAUACCAGUGCCUUAAAAUAGGCACAUGAGGAUCACCCAUGUACCGGGCGCCCUUGGCAGCUAGUACCAUCCA [Edanrele] , test system: MS2 coat protein.
93.9

Write down the reported apparent KD of MS2 coat protein of AGCGAUAUGCAUGAUACCAGCUACAUGAGGAUCACCCAUGUGCGUCAGAAAUGACUGUGUAGCCCUUGGCAGCAUAAAGCAUGUA [Exclusion - Theophylline B (Freestyle 10)] , test system: MS2 coat protein.
32.3

Write down the reported apparent KD of MS2 coat protein of GGAUGCCACUAUGGAUAGCACGAUGCCGAUACCAGCUAGGAAACUAGCCCUUGGCAGCGGAACAUGAGGAUCACCCAUGUAUCCU [EThA NP+V+V2 #8] , test system: MS2 coat protein.
21.3

###

Tested on: MS2 coat protein
test.name: apparent KD of MS2 coat protein; designed switch direction (-1 OFF switch, 1 ON switch): -1; higher = weaker reporter binding
applied.conditions: input ligand: FMN 200 uM
Everything with apparent KD of MS2 coat protein lower than 20 nM is criterion not met; everything else, including exactly 20 nM, is criterion met.

Dear colleague, could you confirm whether AAAGUGUCAGGAUAUUGUUAGUUUAGUUGUUUGUAUUAGUUCGAGAAGGGACAUGAGGAUCACCCAUGUUGUAA [Ex4 #64] (Eterna round: R97, puzzle: Exclusion 4) has apparent KD of MS2 coat protein at or above 20 nM?
criterion met

Dear colleague, could you confirm whether UUGUUACAUGAGGAUCACCCAUGUGAGGAUAUGGUUAAGUAAUGUAAUGUAAAGUAAUCCAGAAGGCACAUGUU [1st #25] (Eterna round: R97, puzzle: Exclusion 1) has apparent KD of MS2 coat protein at or above 20 nM?
criterion met

Dear colleague, could you confirm whether CACCGUUAGGGAGGAUAUCGUACAUGAGGAUCACCCAUGUAAUAAAUGAGAAUUUCGGAUGUAUGCGAGAAGGCCCAAAUCGGC [Ostracism 42 - Jieux - Exclusion NG 2] (Eterna round: R96, puzzle: Exclusion NG 2) has apparent KD of MS2 coat protein at or above 20 nM?
criterion met

Dear colleague, could you confirm whether UGAUCUAGCGGAGGAUAUACAUGAGGAUCACCCAUGUAGUAGUCUGUACCGUAGUGCAGACUUGUGUAGAAGGCCGCUAGAUCU [JL ENG2 3.61] (Eterna round: R96, puzzle: Exclusion NG 2) has apparent KD of MS2 coat protein at or above 20 nM?
criterion not met

Dear colleague, could you confirm whether UUAUAGUGAGGAUAUAUAUGCAGUAAACCUUUAAAUUUAUAACUUGAGGAUCACCCAAGUAGAAGGCGCGUUAU [JR_Ex2_Sub054] (Eterna round: R97, puzzle: Exclusion 2) has apparent KD of MS2 coat protein at or above 20 nM?
criterion not met

Dear colleague, could you confirm whether GGAUCACAUGUUAGGAUAUGCUGGUCCUUGGAUCAGCAGAAGGGACAUGAGGAUCACCCAUGUCAUGAAGAUCC [Eli bmx4 4.81] (Eterna round: R97, puzzle: Brourd's mod of Exclusion 4) has apparent KD of MS2 coat protein at or above 20 nM?
criterion met

Dear colleague, could you confirm whether UACAUGAGGAUCACCCAUGUUUUGUCGUGUAUGGUACCCAUCUAGGAUAUCGUGUUAUUGGACCACGAGAAGGAGAGUAUCAAU [Excl-NG3-LRO01] (Eterna round: R96, puzzle: Exclusion NG 3) has apparent KD of MS2 coat protein at or above 20 nM?
criterion not met

Dear colleague, could you confirm whether UAUUAGCAAGUAAGGUCCCACAUGAGGAUCACCCAUGUGCUCGUCUCCUCAGGUACGGAGUGGAAACUCCCGAUAUG [Sensor-V1 #93] (Eterna round: R97, puzzle: Sensor, turn-off variant 1) has apparent KD of MS2 coat protein at or above 20 nM?
criterion met

Dear colleague, could you confirm whether AGAUGCUCAAGUCGACAUGAGGAUCACCCAUGUACAGUUAAUGAGGAUAUCCGAGAUAAAUAAUAGGAGAAGGCGUGAUCAUGA [Ex NG3 #7] (Eterna round: R96, puzzle: Exclusion NG 3) has apparent KD of MS2 coat protein at or above 20 nM?
criterion met

Dear colleague, could you confirm whether UAUUAGCAAGCGAGAUCCCACAUGAGGAUCACCCAUGUGCUCGUCGCAUCCAGAAUUACUGGGUGCGCUCGUCUUAU [Winner reversed engineered 15] (Eterna round: R97, puzzle: Sensor, turn-off variant 1) has apparent KD of MS2 coat protein at or above 20 nM?
criterion met

Dear colleague, could you confirm whether UAAUUGUGAGGAUAUCUGGCUUCGAUCGUGAGAUCGAGGCUAGAGAAGGCACAUGAGGAUCACCCAUGUUCCUU [jl-ex4-4.10 salish99 mod] (Eterna round: R97, puzzle: Exclusion 4) has apparent KD of MS2 coat protein at or above 20 nM?
criterion met

###

System: MS2 coat protein
test.name: apparent KD of MS2 coat protein; designed switch direction (-1 OFF switch, 1 ON switch): 1; higher = weaker reporter binding
applied.conditions: input ligand: FMN 200 uM
Give apparent KD of MS2 coat protein for every item shown.
Write down the value, and be sure its unit follows.

Could you tell me which apparent KD of MS2 coat protein is on file for AUCCGAACCAUAGGAUAUACUGGCCUCGGGCCAGUAGAAGGGUGGGACAUGAGGAUCACCCAUGUAAAGCACAAUCAGUGCAAA [Ceramace] (Eterna round: R96, puzzle: Same State NG 1) ?
167 nM

Could you tell me which apparent KD of MS2 coat protein is on file for GGCAGGUGCAGGCUUGCUUGCACCUGGAGACAUGAGGAUCACCCAUGUUUGGGACAAGCUUUGCUCCUCGUCUUUUC [JL ViennaUCT Isusreraar mod 7] (Eterna round: R96, puzzle: Sensor for hsa-mir-208a) ?
622 nM

Could you tell me which apparent KD of MS2 coat protein is on file for CCGGCAAGUAUAGGAUAUCCCGCAACAGAAACGGGAGAAGGGUGCCAAACAUGAGGAUCACCCAUGUACACCGGAAAUAAAUAA [Lazaorra] (Eterna round: R96, puzzle: Same State NG 1) ?
54.9 nM

Could you tell me which apparent KD of MS2 coat protein is on file for UGUACCUUCACAGGAUAUCAUGCGAAAAUUGCGUGAGAAGGGUGAAUACUGUCUUACUAAGAGCACAUGAGGAUCACCCAUGUA [SameState NG1 #58] (Eterna round: R96, puzzle: Same State NG 1) ?
269 nM

Could you tell me which apparent KD of MS2 coat protein is on file for GGAGCCAAGGCAGGAUAUUCAACAUGAGGAUCACCCAUGUGGGUAAUAAAGGCCAGAAGGCCUUGGGAGAAGGGCCAUGGCUCG [Xeonanis - 13 mod13] (Eterna round: R96, puzzle: Same State NG 2) ?
16.8 nM

Could you tell me which apparent KD of MS2 coat protein is on file for AUACCAUCAGGAGGAUAUGGCACCUUAUUGGUGCCAGAAGGUCUAACAUGAGGAUCACCCAUGUGGGAGUGGUCUAAUGACCAC [Eli NG1ss - 86] (Eterna round: R96, puzzle: Same State NG 1) ?
73.7 nM
